Tested on: DFO2036
Test: qHTS profiling for inhibitors of Plasmodium falciparum proliferation (AID 504749); also: nearly all actives have a fitted effect of over 60% in size
Settings: P. falciparum in erythrocytes, SYBR Green DNA, 72 h; series mostly up to 28.7 µM
Records with an inconclusive call do not appear. The source made the active and inactive calls. Calls follow the shape of the dose curve; as a rule, active = well fitted inhibition curve with a large enough effect; inconclusive = small, poorly fitted or top-dose-only effect; inactive = flat fitted curve, though single readings scatter.
Field 'call' accepts active, inactive

Incoming: Which outcome did this test record for the compound C=C1/C(=C\C=C2/CCC[C@]3(C)[C@@H]([C@H](C)CCCC(C)(C)O)CC[C@@H]23)C[C@@H](O)C[C@@H]1O ?
Outgoing: inactive

Incoming: Follow-up entry: N[C@H](Cc1ccc(O)c(O)c1)C(=O)O
Outgoing: inactive

Incoming: Follow-up entry: COc1cc2c(cc1OC)C(c1ccccc1)CN(C)CC2 (stereo not given)
Outgoing: inactive

Incoming: Follow-up entry: CN1C(=O)CCC1c1cccnc1 (stereo not given)
Outgoing: inactive

Now take the following compound into account.
Incoming: Which outcome did this test record for the compound CN1C[C@H](C(=O)N[C@]2(C)O[C@@]3(O)C4CCCN4C(=O)[C@H](Cc4ccccc4)N3C2=O)C[C@@H]2c3cccc4[nH]cc(c34)C[C@H]21 (stereo not given in full) ?
Outgoing: active
